From: the supplement of paper PMC13380429

System: Vero E6 infected with SARS-CoV-2
test: inhibition of SARS-CoV-2 cytopathic effect; higher = more antiviral protection, active = above 15
test parameters: 1 nM; 48 h
reported property: inhibition of SARS-CoV-2 cytopathic effect (%)

| compound | units symbol | value |
| --- | --- | --- |
| C[C@]12CC[C@@H]3c4ccc(O)cc4C[C@@H](CCCCCCCCC[S+]([O-])CCCC(F)(F)C(F)(F)F)[C@H]3[C@@H]1CC[C@@H]2O (some centres not stated) | % | -1.55 |
| Cc1cc(Nc2nc(N[C@@H](C)c3ccc(F)cc3)c(C#N)cc2F)n[nH]1 | % | 0.59 |
| Cc1cccc(Nc2ccccc2C(=O)O)c1C | % | -0.88 |
| FC(F)(F)c1ccc(CNc2ccc(Cc3c[nH]c4ncccc34)cn2)cc1 | % | 3.02 |
| C1N2CN3CN1CN(C2)C3 | % | -3.74 |
| CC(CNS(=O)(=O)C(C)C)c1ccc(-c2ccc(C#N)cc2)cc1 (configuration not stated) | % | -2 |
| CO[C@@]1(NC(=O)C2SC(=C(C(N)=O)C(=O)O)S2)C(=O)N2C(C(=O)O)=C(CSc3nnnn3C)CS[C@@H]21 (some centres not stated) | % | 0.97 |
